tested on: OVCAR-4; test: NCI tumour cell line growth inhibition, 48 h
Calls of active or inactive are those of the source. Rule as the data show it: active = GI50 up to about 1.1 µM and inactive = higher.
Outcome field: choose from active, inactive

[ask] Hi team, can someone confirm the assay call for C=C1CC(OC)(C(O)C(=O)N[C@H]2OCO[C@H]3C2O[C@H](C[C@H](O)COC)C(C)(C)C3OC)O[C@H](C)[C@@H]1C (some centres not stated) ?
[reply] active

[ask] So what was the verdict on C[P+]1(c2ccccc2)CCCCC1 in this test?
[reply] inactive

[ask] What call does the record list for CC1(C(=O)O)CCOc2ccccc21 (configuration not stated) ?
[reply] inactive

[ask] Look up the recorded call for Cc1ccc(/N=N/c2c(O)c(C(=O)O)cc3ccccc23)c(S(=O)(=O)O)c1 in this test.
[reply] inactive

[ask] Hi, sorry to bother you, what did the test record for O=C1c2ccccc2CC1C1(O)C(=O)Nc2c(Cl)cc(Cl)cc21 (configuration not stated) ?
[reply] inactive

[ask] Could you check what this test reported for Cc1cc(C)n(CCNCCn2nc(C)cc2C)n1 ?
[reply] inactive

[ask] Please let me know the test result on file for CCCC(C)c1c(Cl)nc(Cl)nc1Cl (configuration not stated) .
[reply] inactive

[ask] Tell me the recorded outcome of this test for CCOC(=O)C1(Cc2ccc3c(c2)CCC3)Cc2cc3c(cc2C1)CCC3 .
[reply] inactive

***
[ask] Field: outcome | Entry: Cc1ccc(NC(=O)SCCC(=O)O)cc1NC(=O)SCCC(=O)O
[reply] inactive

[ask] Could you kindly confirm the outcome this assay logged for O=C1C(C(O)(C(F)(F)Cl)C(F)(F)Cl)CCCC1C(O)(C(F)(F)Cl)C(F)(F)Cl (configuration not stated) ?
[reply] inactive

[ask] Test call, this compound: CCN(CCCOc1ccccc1)CCN(CC)CCCOc1ccccc1
[reply] inactive

[ask] # outcome recorded in this test, key = CCN1C[C@]2(C)CC[C@H](OC)C34C5C[C@@H]6[C@@H](OC)C[C@@](OC)(C5[C@H]6OCc5ccccc5)C(C13)[C@H](OC(C)=O)[C@@H]42 (some centres not stated)
[reply] inactive
